Entries annotated with measured TGI
- Tested on: MALME-3M melanoma
- ASSAY_OVERVIEW: NCI tumour cell line growth inhibition, 48 h

>>> value_measured("CCOC(=O)C12CC1(C(=O)OCC)C1CCC2C1 (stereo not given)")
"> 100 µM"

# TGI measured on MALME-3M melanoma for item O=[N+]([O-])C1(C2([N+](=O)[O-])CCCC2)CCCC1 = > 100 µM

Bench note, MALME-3M melanoma: COc1cc(C2C(C(=O)Nc3ccccc3)=C(C)NC(C)=C2C(=O)Nc2ccccc2)ccc1O , TGI reads > 100 µM

Here CCC1(CN(C)C)CC/C(=C\c2ccc3c(c2)OCO3)C1=O (stereo not given) was tested on MALME-3M melanoma, and its TGI came to > 100 µM

Record CC(C)(C)/C(O)=C\c1nc2cc(C(F)(F)F)ccc2[nH]c1=O has MALME-3M melanoma TGI equal to > 100 µM

Param item: O=C1C2=C(c3ccccc31)C(c1ccccc1Cl)N1C(=O)CSC1=N2 (stereo not given) ; param system: MALME-3M melanoma; output TGI: > 100 µM

The recorded TGI with MALME-3M melanoma for Fc1ccc(C(OCCN2CCC3CCC(C2)N3Cc2cc3ccccc3[nH]2)c2ccc(F)cc2)cc1 (stereo not given) was 2.96 µM

Noted TGI for O=c1[nH]c(-c2ccc(C(F)(F)F)cc2)nc2c1CSCC2 , tested on MALME-3M melanoma: > 100 µM

Item: CC(=O)Oc1c(OC(C)=O)c(-c2ccc(O)c(O)c2)c(O)c(O)c1-c1ccc(O)cc1 | System: MALME-3M melanoma | TGI: > 100 µM

Log: MALME-3M melanoma, compound CC(C)[Si]1(C(C)C)OCC2OC(n3ccc(=O)[nH]c3=O)C(O)(CO)C2O[Si](C(C)C)(C(C)C)O1 (stereo not given) , TGI = 28.4 µM
